target: PIKFYVE (Homo sapiens (Human)); test: KINOMEScan Kinase Assay, PIKFYVE binding
pKd: −log10 of the molar value.
MEASUREMENT_KIND: pKd

Answered cases to consult:
COc1cccc(-c2ccn(-c3cc(N4CCOCC4)n4nc(-c5ccncc5)cc4n3)n2)c1
> 9.00
Cc1cccc(-c2ccn(-c3cc(N4CCOCC4)n4nc(C5=CCNCC5)cc4n3)n2)c1
8.30 to 9.00
Cc1cccc(-c2ccn(-c3cc(N4CCOCC4)n4nc(-c5ccncc5)cc4n3)n2)c1
> 9.00
[O-][n+]1ccc(-c2cc3nc(-n4ccc(-c5cccc(Br)c5)n4)cc(N4CCOCC4)n3n2)cc1
> 9.00
Cc1cccc(-c2ccn(-c3cc(N4CCOCC4)n4nc(Br)cc4n3)n2)c1
8.30 to 9.00

For the molecule `Cc1cccc(-c2ccn(-c3cc(N4CCOCC4)n4nc(-c5ccnnc5)cc4n3)n2)c1` , what pKd is on record?
> 9.00

###

assay: in vitro; details: hamster
MEASUREMENT_KIND: CC50 (µM)
Respond with the bare value in µM.

Cc1cccc(/C=N/Nc2cc(N3CCOCC3)nc(OCCc3ccccn3)n2)c1 [Apilimod, reference compound]
8

Next molecule, please.
For the molecule CCN(CC)CCCC(C)Nc1ccnc2cc(Cl)ccc12 (centres unmarked) [Chloroquine, chloroquine, reference compound] , what CC50 is on record?
35

###

test: Cytotoxicity (CC50) in Influenza A assay; assay type: cell-based; conditions: dog; Influenza A IFA Assay; MDCK cells
MEASUREMENT_KIND: CC50

For the compound `Cc1cccc(-c2ccn(-c3cc(N4CCOCC4)n4nc(-c5ccncc5)cc4n3)n2)c1` , what CC50 is on record?
> 20 µM

For the compound `Brc1cccc(-c2ccn(-c3cc(N4CCOCC4)n4nc(-c5ccncc5)cc4n3)n2)c1` , what CC50 is on record?
> 20 µM

###

Reported values of CC50 at 1 day for individual entries
assay: Cytotoxicity (CC50) in SARS-CoV-2 IFA; assay type: cell-based; conditions: African green monkey; SARS-CoV2 IFA Assay; Vero cells

Cc1cccc(-c2ccn(-c3cc(N4CCOCC4)n4nc(-c5ccncc5)cc4n3)n2)c1
> 20 µM

Next compound, please.
For the compound `Brc1cccc(-c2ccn(-c3cc(N4CCOCC4)n4nc(-c5ccncc5)cc4n3)n2)c1` , what CC50 at 1 day is on record?
> 20 µM

###

molecular target: PIKFYVE (Homo sapiens (Human), UniProt Q9Y2I7); assay: KINOMEScan Kinase Assay, PIKFYVE binding; conditions: read-out: % Inhib. (50 nM)
Sequence (Q9Y2I7 whole entry): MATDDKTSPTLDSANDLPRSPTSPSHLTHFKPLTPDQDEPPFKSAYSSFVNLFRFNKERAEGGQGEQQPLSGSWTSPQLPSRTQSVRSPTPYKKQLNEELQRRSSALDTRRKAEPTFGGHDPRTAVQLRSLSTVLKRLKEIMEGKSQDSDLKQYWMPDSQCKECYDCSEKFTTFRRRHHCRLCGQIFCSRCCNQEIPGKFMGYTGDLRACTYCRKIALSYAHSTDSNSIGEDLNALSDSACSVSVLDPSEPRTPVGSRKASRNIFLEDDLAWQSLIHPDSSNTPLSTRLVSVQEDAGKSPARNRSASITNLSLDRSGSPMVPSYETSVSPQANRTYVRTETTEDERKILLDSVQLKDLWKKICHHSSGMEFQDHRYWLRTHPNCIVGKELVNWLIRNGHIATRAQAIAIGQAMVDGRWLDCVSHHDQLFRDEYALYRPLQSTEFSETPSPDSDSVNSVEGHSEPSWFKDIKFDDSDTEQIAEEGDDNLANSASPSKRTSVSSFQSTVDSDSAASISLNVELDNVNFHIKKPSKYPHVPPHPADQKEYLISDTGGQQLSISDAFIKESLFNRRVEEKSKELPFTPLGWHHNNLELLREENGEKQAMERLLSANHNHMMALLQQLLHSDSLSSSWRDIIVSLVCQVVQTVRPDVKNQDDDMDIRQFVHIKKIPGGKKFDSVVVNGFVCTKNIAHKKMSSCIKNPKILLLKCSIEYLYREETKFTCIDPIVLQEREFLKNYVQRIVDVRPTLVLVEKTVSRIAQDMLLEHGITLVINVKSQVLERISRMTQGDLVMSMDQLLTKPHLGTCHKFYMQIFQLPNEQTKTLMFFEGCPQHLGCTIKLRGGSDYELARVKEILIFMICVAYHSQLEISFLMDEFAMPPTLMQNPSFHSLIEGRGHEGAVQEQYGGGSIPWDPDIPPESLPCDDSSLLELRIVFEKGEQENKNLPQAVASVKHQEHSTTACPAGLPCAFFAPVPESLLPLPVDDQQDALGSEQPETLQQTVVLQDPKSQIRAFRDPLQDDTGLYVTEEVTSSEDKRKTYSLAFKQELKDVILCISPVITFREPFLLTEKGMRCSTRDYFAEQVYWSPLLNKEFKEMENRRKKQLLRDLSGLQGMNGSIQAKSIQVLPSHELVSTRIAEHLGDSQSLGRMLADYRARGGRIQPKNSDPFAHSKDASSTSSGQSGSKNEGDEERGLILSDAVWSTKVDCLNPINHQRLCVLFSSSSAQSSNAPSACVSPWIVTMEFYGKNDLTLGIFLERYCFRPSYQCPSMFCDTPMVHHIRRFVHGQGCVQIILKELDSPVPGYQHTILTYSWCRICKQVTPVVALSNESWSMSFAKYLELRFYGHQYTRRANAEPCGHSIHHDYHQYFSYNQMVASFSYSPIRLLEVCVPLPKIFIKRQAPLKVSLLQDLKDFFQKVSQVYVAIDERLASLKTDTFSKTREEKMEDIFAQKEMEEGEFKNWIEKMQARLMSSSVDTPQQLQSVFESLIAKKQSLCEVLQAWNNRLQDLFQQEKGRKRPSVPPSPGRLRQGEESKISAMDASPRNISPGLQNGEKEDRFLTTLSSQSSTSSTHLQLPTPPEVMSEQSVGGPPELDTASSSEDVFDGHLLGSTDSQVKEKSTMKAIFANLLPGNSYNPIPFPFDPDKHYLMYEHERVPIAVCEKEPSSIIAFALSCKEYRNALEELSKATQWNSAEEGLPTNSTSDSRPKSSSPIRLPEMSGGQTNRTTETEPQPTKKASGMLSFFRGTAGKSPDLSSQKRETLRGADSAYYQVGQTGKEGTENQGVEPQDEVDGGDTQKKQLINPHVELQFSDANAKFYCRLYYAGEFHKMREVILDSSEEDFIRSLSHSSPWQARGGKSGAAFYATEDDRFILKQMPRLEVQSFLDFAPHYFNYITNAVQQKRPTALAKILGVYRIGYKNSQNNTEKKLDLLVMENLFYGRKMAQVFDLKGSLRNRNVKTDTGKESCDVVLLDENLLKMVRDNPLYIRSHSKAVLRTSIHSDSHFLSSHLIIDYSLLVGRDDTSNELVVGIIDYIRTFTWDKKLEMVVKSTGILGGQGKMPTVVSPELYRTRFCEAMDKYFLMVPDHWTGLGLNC
MEASUREMENT_KIND: inhibition at 0.05 µM

Answered cases to consult:
CCOc1cccc(-c2ccn(-c3cc(N4CCOCC4)n4nc(-c5ccncc5)cc4n3)n2)c1
< 50%
N#Cc1cccc(-c2ccn(-c3cc(N4CCOCC4)n4nc(-c5ccncc5)cc4n3)n2)c1
50 to 80%
FC(F)(F)Oc1cccc(-c2ccn(-c3cc(N4CCOCC4)n4nc(-c5ccncc5)cc4n3)n2)c1
< 50%
C=Cc1cc2nc(-n3ccc(-c4cccc(C)c4)n3)cc(N3CCOCC3)n2n1
80 to 100%
Cc1ccccc1-c1ccn(-c2cc(N3CCOCC3)n3nc(-c4ccncc4)cc3n2)n1
< 50%

For the molecule `Fc1ccc(-c2ccn(-c3cc(N4CCOCC4)n4nc(-c5ccncc5)cc4n3)n2)cc1` , what inhibition at 0.05 µM is on record?
50 to 80%

For the molecule `Fc1ccccc1-c1ccn(-c2cc(N3CCOCC3)n3nc(-c4ccncc4)cc3n2)n1` , what inhibition at 0.05 µM is on record?
50 to 80%

For the molecule `Fc1cccc(-c2ccn(-c3cc(N4CCOCC4)n4nc(-c5ccncc5)cc4n3)n2)c1` , what inhibition at 0.05 µM is on record?
50 to 80%

###

Reported values of CC50 for individual entries
test: in vitro; conditions: hamster

For the compound `Brc1cccc(-c2ccn(-c3cc(N4CCOCC4)n4nc(-c5ccncc5)cc4n3)n2)c1` , what CC50 is on record?
> 10 µM

For the compound `COc1cccc(-c2ccn(-c3cc(N4CCOCC4)n4nc(-c5ccncc5)cc4n3)n2)c1` , what CC50 is on record?
5 to 10 µM

For the compound `Cc1cccc(-c2ccn(-c3cc(N4CCOCC4)n4nc(-c5ccncc5)cc4n3)n2)c1` , what CC50 is on record?
5 to 10 µM
